# study.target: activated ROCK II (Rattus norvegicus)
# Construct: purchased Upstate Biotechnology 14-338
# Sequence (Q62868 11-550 limits assumed): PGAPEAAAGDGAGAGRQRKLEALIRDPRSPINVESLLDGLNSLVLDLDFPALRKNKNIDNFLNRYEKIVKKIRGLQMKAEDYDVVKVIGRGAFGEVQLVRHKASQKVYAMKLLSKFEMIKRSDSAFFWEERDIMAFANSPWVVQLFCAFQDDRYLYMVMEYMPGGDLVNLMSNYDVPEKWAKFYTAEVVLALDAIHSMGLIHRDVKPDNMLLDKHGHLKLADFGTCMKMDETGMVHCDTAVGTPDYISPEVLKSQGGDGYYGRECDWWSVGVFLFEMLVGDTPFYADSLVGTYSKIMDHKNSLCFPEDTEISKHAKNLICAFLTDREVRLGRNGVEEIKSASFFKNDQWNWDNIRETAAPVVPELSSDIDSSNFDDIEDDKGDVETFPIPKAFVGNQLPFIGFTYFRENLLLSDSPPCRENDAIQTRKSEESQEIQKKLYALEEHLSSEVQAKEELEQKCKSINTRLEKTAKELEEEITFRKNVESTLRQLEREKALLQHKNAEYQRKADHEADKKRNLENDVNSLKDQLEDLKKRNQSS
# test.method.notes: Test for Evaluation of Inhibiting Activity to Rho Kinase
# Type: biochemical
# condition.parameters: S6 Kinase Substrate Peptide, [γ-32P]ATP, 30° C. for 15 minutes, Ki=IC50/(1+S/Km)
pKi: −log10 of the molar value. Counter-ions that a name gives are not always drawn.
measured.metric: pKi

>>> assay_value("CCC(N)(CC)c1ccc(-c2ccc3[nH]ncc3c2N)cc1 [Compound 5-22, trihydrochloride]")
7.42
>>> assay_value("CN(C)c1c(-c2ccc(CN)cc2)ccc2[nH]ncc12 [Compound 5-23, trihydrochloride]")
7.54
>>> assay_value("CC(C)(N)c1ccc(-c2ccc3[nH]ncc3c2-c2ccncc2)cc1 [Compound 5-61, trihydrochloride]")
7.35
>>> assay_value("CC(C)Oc1c(-c2ccc(C(C)(C)N)cc2)ccc2[nH]ncc12 [Compound 5-40, dihydrochloride]")
7.48
>>> assay_value("COc1c(-c2ccc(C(C)(C)N)cn2)ccc2[nH]ncc12 [Compound 5-45, trihydrochloride]")
7.57
>>> assay_value("CC(C)(N)c1ccc(-c2ccc3[nH]ncc3c2C2CC2)nc1 [Compound 5-29, trihydrochloride]")
8.57
>>> assay_value("CC(C)(N)c1ccc(-c2ccc3[nH]ncc3c2O)cc1 [Compound 5-48, dihydrochloride]")
7.54
>>> assay_value("CC(C)(N)c1ccc(-c2ccc3[nH]nc(N)c3c2)cc1 [Compound 5-11, trihydrochloride]")
6.84
>>> assay_value("CC(C)(N)c1ccc(-c2ccc3[nH]ncc3c2OC2CC2)nc1 [Compound 5-70, trihydrochloride]")
7.55
>>> assay_value("CN(C)c1c(-c2ccc(C3(N)CCCC3)cc2)ccc2[nH]ncc12 [Compound 5-24, trihydrochloride]")
7.85
>>> assay_value("CC(C)(N)c1ccc(-c2ccc3[nH]ncc3c2OCCF)cc1 [Compound 5-56, dihydrochloride]")
7.59
>>> assay_value("COc1c(-c2ccc(C(C)(C)N)cc2)ccc2[nH]ncc12 [Compound 5-44, dihydrochloride]")
7.89
>>> assay_value("CC(C)(N)c1ccc(-c2ccc3[nH]ncc3c2-c2cc[nH]n2)cc1 [Compound 5-67, trihydrochloride]")
7.96
>>> assay_value("CC(C)(N)c1ccc(-c2ccc3[nH]ncc3c2C#N)cc1 [Compound 5-36, monohydrochloride]")
7.46
>>> assay_value("CCN(CC)c1c(-c2ccc(C(C)(C)N)cc2)ccc2[nH]ncc12 [Compound 5-31, trihydrochloride]")
6.21
>>> assay_value("CC(C)(N)c1ccc(-c2ccc3[nH]ncc3c2CCO)nc1 [Compound 5-33, trihydrochloride]")
6.63
>>> assay_value("CCCOc1c(-c2ccc(C(C)(C)N)cc2)ccc2[nH]ncc12 [Compound 5-52, dihydrochloride]")
7.85
>>> assay_value("CC(C)Oc1c(-c2ccc(C(C)(C)N)cn2)ccc2[nH]ncc12 [Compound 5-50, trihydrochloride]")
7.08
>>> assay_value("CCCCOc1c(-c2ccc(C(C)(C)N)cc2)ccc2[nH]ncc12 [Compound 5-55, dihydrochloride]")
7.89
>>> assay_value("CC(C)(N)c1ccc(-c2ccc3[nH]ncc3c2CO)cc1 [Compound 5-35, dihydrochloride]")
6.86
>>> assay_value("CC(C)(N)c1ccc(-c2ccc3[nH]ncc3c2N2CCCC2)cc1 [Compound 5-42, trihydrochloride]")
7.85
>>> assay_value("CCC(N)(CC)c1ccc(-c2ccc3[nH]ncc3c2OC)nc1 [Compound 5-51, trihydrochloride]")
7.42
>>> assay_value("CC(C)(N)c1ccc(-c2ccc3[nH]ncc3c2-c2cccnc2)cc1 [Compound 5-62, trihydrochloride]")
6.90
>>> assay_value("C=CCOc1c(-c2ccc(C(C)(C)N)cc2)ccc2[nH]ncc12 [Compound 5-57, dihydrochloride]")
7.64
